Where these numbers come from: ChEMBL document CHEMBL1138270

# Test system: Mus musculus
# testDetails: Phototoxicity in Swiss Albino mouse assessed as ear thickness at 140 mg/kg, po after 72 hrs of irradiation
# Format: organism-based
# Set-up: dose 140 mg/kg, route oral
# statedConditions: in vivo
Labelling: Activity reported below 0.3 mm becomes T; at or above becomes F.

Some entries whose results are on file:
[
  {
    "compound": "O=C(O)c1cn(-c2ccc(F)cc2)c2nc(N3CCSCC3)c([N+](=O)[O-])cc2c1=O",
    "classification": "T"
  },
  {
    "compound": "O=C(O)c1cn2c(n1)CN(c1nc3c(cc1[N+](=O)[O-])c(=O)c(C(=O)O)cn3-c1ccc(F)cc1)CC2",
    "classification": "F"
  },
  {
    "compound": "CCn1cc(C(=O)O)c(=O)c2cc(F)c(N3CCNC(C)C3)c(F)c21 (configuration not stated)",
    "classification": "F"
  }
]

// switching to the query compound
Could you please tell me whether Activity recorded for COc1ccc(CC2C3=C(CCCC3)CCN2c2nc3c(cc2[N+](=O)[O-])c(=O)c(C(=O)O)cn3C2CC2)cc1 (configuration not stated) is less than 0.3 mm?
F

###

# Test system: Mycobacterium tuberculosis
# testDetails: Antimycobacterial activity against Mycobacterium tuberculosis H37Rv by agar dilution method
# Assay type: functional
Property: log10(MIC); scope: individual molecules
Heads up: the numbers are on a log10 scale; they represent MIC in µM.

Please review the following examples before continuing.
[
  {
    "molecule": "CC(C)(C)n1cc(C(=O)O)c(=O)c2cc([N+](=O)[O-])c(N3CCn4cc(C(=O)O)nc4C3)nc21",
    "system": "Mycobacterium tuberculosis",
    "log10(MIC)": -0.38
  },
  {
    "molecule": "O=C(O)c1cn(-c2ccc(F)cc2)c2nc(N3CCSCC3)c([N+](=O)[O-])cc2c1=O",
    "system": "Mycobacterium tuberculosis",
    "log10(MIC)": -0.36
  },
  {
    "molecule": "CCN(CC)C(=O)C1CCCN(c2nc3c(cc2[N+](=O)[O-])c(=O)c(C(=O)O)cn3-c2ccc(F)cc2)C1 (stereo not drawn)",
    "system": "Mycobacterium tuberculosis",
    "log10(MIC)": 0.48
  },
  {
    "molecule": "CCN(CC)C(=O)C1CCCN(c2nc3c(cc2[N+](=O)[O-])c(=O)c(C(=O)O)cn3C(C)(C)C)C1 (stereo not drawn)",
    "system": "Mycobacterium tuberculosis",
    "log10(MIC)": 0.52
  },
  {
    "molecule": "CC(C)(C)n1cc(C(=O)O)c(=O)c2cc([N+](=O)[O-])c(N3CCN(C(c4ccccc4)c4ccc(Cl)cc4)CC3)nc21 (stereo not drawn)",
    "system": "Mycobacterium tuberculosis",
    "log10(MIC)": 0.13
  },
  {
    "molecule": "CC(C)(C)n1cc(C(=O)O)c(=O)c2cc([N+](=O)[O-])c(N3CCC(N4CCCCC4)CC3)nc21",
    "system": "Mycobacterium tuberculosis",
    "log10(MIC)": 0.23
  }
]

What log10(MIC) value was documented for this molecule, CC(C)(C)n1cc(C(=O)O)c(=O)c2cc([N+](=O)[O-])c(N3CCC(O)(c4ccc(Cl)cc4)CC3)nc21 ?
0.49

Consider the molecule shown here: O=C(O)c1cn(-c2ccc(F)cc2)c2nc(N3CCN(Cc4ccc5c(c4)OCO5)CC3)c([N+](=O)[O-])cc2c1=O What is its recorded log10(MIC)?
1.06

###

# System: Mus musculus
# testDetails: Phototoxicity in Swiss Albino mouse assessed as ear thickness at 140 mg/kg, po after 96 hrs of irradiation
# Type: organism-based
# Set-up: dose 140 mg/kg, route oral
# statedConditions: in vivo
measuredQuantity: Activity (mm)
Numbers only here, please. The scale is mm.

Examples with answers:
[
  {
    "compound": "CC1(C)COCN1c1nc2c(cc1[N+](=O)[O-])c(=O)c(C(=O)O)cn2C(C)(C)C",
    "measureUnit": "mm",
    "Activity": 0.3
  },
  {
    "compound": "COc1ccc(CC2C3=C(CCCC3)CCN2c2nc3c(cc2[N+](=O)[O-])c(=O)c(C(=O)O)cn3C2CC2)cc1 (configuration not stated)",
    "measureUnit": "mm",
    "Activity": 0.33
  },
  {
    "compound": "O=C(O)c1cn2c(n1)CN(c1nc3c(cc1[N+](=O)[O-])c(=O)c(C(=O)O)cn3-c1ccc(F)cc1)CC2",
    "measureUnit": "mm",
    "Activity": 0.33
  },
  {
    "compound": "CCn1cc(C(=O)O)c(=O)c2cc(F)c(N3CCNC(C)C3)c(F)c21 (configuration not stated)",
    "measureUnit": "mm",
    "Activity": 0.6
  },
  {
    "compound": "CC1CN(c2nc3c(cc2[N+](=O)[O-])c(=O)c(C(=O)O)cn3-c2ccc(F)cc2)CC(C)O1 (configuration not stated)",
    "measureUnit": "mm",
    "Activity": 0.3
  }
]

Form field: reported Activity of CC(C)(C)n1cc(C(=O)O)c(=O)c2cc([N+](=O)[O-])c(N3CCSCC3)nc21
0.32

What does the data say about its Activity? Entry: O=C(O)c1cn(-c2ccc(F)cc2)c2nc(N3CCSCC3)c([N+](=O)[O-])cc2c1=O
0.29

###

# Test system: Mycobacterium tuberculosis
# testDetails: Antimycobacterial activity against Mycobacterium tuberculosis H37Rv by agar dilution method
# Type: functional
measuredQuantity: MIC (µM)
The response must be a number in µM with no trailing unit.

The following molecules have reported results that may help.
[
  {
    "molecule": "CC(C)(C)n1cc(C(=O)O)c(=O)c2cc([N+](=O)[O-])c(N3CCC4(CC3)OCCO4)nc21",
    "measureUnit": "µM",
    "measurement": 0.9
  },
  {
    "molecule": "O=C(O)c1cn(C2CC2)c2nc(N3CCC(O)(c4ccc(Cl)cc4)CC3)c([N+](=O)[O-])cc2c1=O",
    "measureUnit": "µM",
    "measurement": 6.46
  },
  {
    "molecule": "O=C(O)c1cn(C2CC2)c2nc(N3CCN(C(c4ccccc4)c4ccc(Cl)cc4)CC3)c([N+](=O)[O-])cc2c1=O (stereo not drawn)",
    "measureUnit": "µM",
    "measurement": 5.59
  }
]

Item O=C(O)c1cn(C2CC2)c2nc(N3CCN(C(=O)c4ccco4)CC3)c([N+](=O)[O-])cc2c1=O with Mycobacterium tuberculosis - MIC?
6.9

Value wanted: MIC (Mycobacterium tuberculosis) of entry O=C(O)c1cn(-c2ccc(F)cc2)c2nc(N3CCN(C(c4ccccc4)c4ccc(Cl)cc4)CC3)c([N+](=O)[O-])cc2c1=O (stereo not drawn)
1.27

Which measured MIC belongs to CN1CCN(c2nc3c(cc2[N+](=O)[O-])c(=O)c(C(=O)O)cn3C2CC2)CC1c1ccccc1 (stereo not drawn) , tested on Mycobacterium tuberculosis?
6.96

Form entry - test system: Mycobacterium tuberculosis; read-out: MIC; molecule: O=C(O)c1cn(C2CC2)c2nc(N3CCN(C(=O)C4COc5ccccc5O4)CC3)c([N+](=O)[O-])cc2c1=O (stereo not drawn)
12

Record CC(C)(C)NC(=O)C1c2ccccc2CCN1c1nc2c(cc1[N+](=O)[O-])c(=O)c(C(=O)O)cn2C(C)(C)C (stereo not drawn) : what is its MIC with Mycobacterium tuberculosis?
2.99

###

Some compounds, each annotated with its measured MIC.
# Test system: Mycolicibacterium smegmatis
# testDetails: Antimicrobial activity against Mycobacterium smegmatis by agar dilution method
# Type: functional
Give just the number in µM; leave the unit off.

[
  {
    "compound": "CCN(CC)C(=O)C1CCCN(c2nc3c(cc2[N+](=O)[O-])c(=O)c(C(=O)O)cn3-c2ccc(F)cc2)C1 (stereo unspecified)",
    "measurement": 12.2
  },
  {
    "compound": "CC1CN(c2nc3c(cc2[N+](=O)[O-])c(=O)c(C(=O)O)cn3-c2ccc(F)cc2)CC(C)O1 (stereo unspecified)",
    "measurement": 1.79
  },
  {
    "compound": "CN1CCN(c2nc3c(cc2[N+](=O)[O-])c(=O)c(C(=O)O)cn3-c2ccc(F)cc2)CC1c1ccccc1 (stereo unspecified)",
    "measurement": 3.09
  }
]

Consider the compound shown here: CC(C)(C)n1cc(C(=O)O)c(=O)c2cc([N+](=O)[O-])c(N3CCN(C(=O)c4ccco4)CC3)nc21 What is its recorded MIC?
6.67

// lookup MIC for CC(C)(C)n1cc(C(=O)O)c(=O)c2cc([N+](=O)[O-])c(N3CCC(n4c(=O)[nH]c5cc(Cl)ccc54)CC3)nc21
11.5

Any idea what MIC was measured for O=C(O)c1cn(C2CC2)c2nc(N3CCC4(CC3)OCCO4)c([N+](=O)[O-])cc2c1=O ?
30

Look up MIC for this compound: CC1CN(c2nc3c(cc2[N+](=O)[O-])c(=O)c(C(=O)O)cn3C2CC2)CC(C)O1 (stereo unspecified)
32.2

Any idea what its MIC is? The compound is CN1CCN(c2nc3c(cc2[N+](=O)[O-])c(=O)c(C(=O)O)cn3C2CC2)CC1c1ccccc1 (stereo unspecified)
27.8

Query (compound): O=C(O)c1cn(-c2ccc(F)cc2)c2nc(N3CCN(Cc4ccc5c(c4)OCO5)CC3)c([N+](=O)[O-])cc2c1=O ; field requested: MIC
45.7

# query: MIC of entry CC(C)(C)n1cc(C(=O)O)c(=O)c2cc([N+](=O)[O-])c(N3CCN(C(=O)C4COc5ccccc5O4)CC3)nc21 (stereo unspecified)
5.82

Quick check: MIC of O=C(O)c1cn(-c2ccc(F)cc2)c2nc(N3CCN(C(c4ccccc4)c4ccc(Cl)cc4)CC3)c([N+](=O)[O-])cc2c1=O (stereo unspecified) ?
5.09
